details: pH 2.7
Marks after values point to notes of the source that are not given here.
Listed below: Log P values for each entry.

Please review the entries below; each comes with its answer.
# return recorded Log P for input COC(=O)C(C#N)=C(NC(C)C(C)C)c1sc(C)nc1C(F)(F)F (centres unmarked)
3.63^[a]

# return recorded Log P for input CCOC(=O)C(C#N)=C(NC(C)c1ccn(C)n1)c1cccnc1C(F)F (racemic)
2.18^[a]

# return recorded Log P for input CCOC(=O)C(C#N)=C(NC(C)C1CCCCC1)c1ccsc1Br (centres unmarked)
5.03^[a]

# return recorded Log P for input CCOC(=O)C(C#N)=C(NC(C)C(F)(F)F)c1cn(C)nc1C(F)F (racemic)
2.92^[a]

# return recorded Log P for input CNC(=O)C(C)NC(=C(C#N)C(=O)OC)c1cn(C)nc1C(F)F (centres unmarked)
1.38^[a]

# return recorded Log P for input CCOC(=O)C(C#N)=C(NC(C)c1ccccc1)c1cn(C)nc1C(F)F (mixture of isomers)
3.17^[a]

# return recorded Log P for input COC(=O)C(C#N)=C(NC(C)c1ccc(C(C)C)cc1)c1cccnc1Cl (centres unmarked)
4^[a]

---
# return recorded Log P for input CCOC(=O)C(C#N)=C(NC(C)COCc1ccccc1F)c1cccnc1Cl (centres unmarked)
3.69^[a]
